measured-target: EGFR del19/T790M/C797S (Homo sapiens, UniProt P00533, C797S/DEL746-750/T790M)
Sequence (P00533 with tags, fused parts or gaps DEL746-750/T790M/C797S): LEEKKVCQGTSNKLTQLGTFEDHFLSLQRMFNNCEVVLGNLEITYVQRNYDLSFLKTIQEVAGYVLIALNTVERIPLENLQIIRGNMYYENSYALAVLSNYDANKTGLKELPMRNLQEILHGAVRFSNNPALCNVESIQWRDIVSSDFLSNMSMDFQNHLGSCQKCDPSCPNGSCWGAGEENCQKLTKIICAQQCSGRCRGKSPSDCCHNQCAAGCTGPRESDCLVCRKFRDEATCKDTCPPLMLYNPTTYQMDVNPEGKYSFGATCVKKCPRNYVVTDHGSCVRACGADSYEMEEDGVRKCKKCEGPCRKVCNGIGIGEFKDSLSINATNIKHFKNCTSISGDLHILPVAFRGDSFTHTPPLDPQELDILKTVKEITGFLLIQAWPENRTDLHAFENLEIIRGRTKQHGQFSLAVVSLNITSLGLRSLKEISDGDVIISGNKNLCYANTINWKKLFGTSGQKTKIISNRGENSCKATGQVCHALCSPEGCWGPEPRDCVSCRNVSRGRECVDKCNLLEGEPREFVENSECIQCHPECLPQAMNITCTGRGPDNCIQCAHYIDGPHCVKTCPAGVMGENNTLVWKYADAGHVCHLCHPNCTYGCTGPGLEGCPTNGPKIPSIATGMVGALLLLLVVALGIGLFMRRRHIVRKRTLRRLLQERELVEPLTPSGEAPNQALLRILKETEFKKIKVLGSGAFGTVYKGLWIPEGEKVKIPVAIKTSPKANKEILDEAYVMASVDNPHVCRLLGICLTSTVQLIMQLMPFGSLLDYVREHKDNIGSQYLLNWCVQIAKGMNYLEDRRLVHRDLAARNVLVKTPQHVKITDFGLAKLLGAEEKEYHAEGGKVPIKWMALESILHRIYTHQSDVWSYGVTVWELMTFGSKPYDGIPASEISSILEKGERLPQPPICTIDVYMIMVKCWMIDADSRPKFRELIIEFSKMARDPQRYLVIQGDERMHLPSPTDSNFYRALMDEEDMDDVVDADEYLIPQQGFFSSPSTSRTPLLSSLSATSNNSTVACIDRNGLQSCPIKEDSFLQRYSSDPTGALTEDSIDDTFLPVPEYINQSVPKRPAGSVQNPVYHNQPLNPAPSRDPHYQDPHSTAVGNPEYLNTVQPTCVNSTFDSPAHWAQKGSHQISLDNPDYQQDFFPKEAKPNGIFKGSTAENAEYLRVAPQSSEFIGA
protocol-text: Biochemical EGFR kinase assay (Lance Ultra TR-FRET), triple mutant del19/T790M/C797S
study-conditions: Km ATP; read-out: IC50 del19/T790M/C797S (nM) Km ATP
So basically, if IC50 comes in under 0.6 nM it's yes (1), and if it's 0.6 nM or more it's no (0).

Completed entries (count: 8):
molecule="CN1CCC(Oc2ccc(-c3cnc(Nc4ccnc(-c5cnn(CC(F)F)c5)n4)cc3NC3CCCC(F)C3)nc2)CC1 (stereo not shown) [Example 141]" class_name="yes (1)"
molecule="O=S(=O)(C1CC1)n1cc(-c2nccc(Nc3cc(N[C@H]4CC[C@@H](NCCF)CC4)c(-c4ccc(CO)cn4)cn3)n2)cn1 [Example 21]" class_name="yes (1)"
molecule="CC(C)(O)c1cnc(-c2cnc(Nc3ccnc(-c4cnn(S(=O)(=O)C5CC5)c4)n3)cc2N[C@H]2CC[C@@](C)(O)CC2)cn1 [Example 118]" class_name="yes (1)"
molecule="CC(C)(O)c1ccnc(-c2cnc(Nc3ccnc(-c4cnn(S(=O)(=O)C5CC5)c4)n3)cc2N[C@H]2CC[C@@H](C(C)(C)O)CC2)c1 [Example 109]" class_name="no (0)"
molecule="CC(C)(O)[C@H]1CC[C@@H](Nc2cc(Nc3ccnc(-c4cnn(S(=O)(=O)C5CC5)c4)n3)ncc2-c2ccc(CO)cn2)CC1 [Example 24]" class_name="no (0)"
molecule="O=S(=O)(C1CC1)n1cc(-c2nccc(Nc3cc(N[C@H]4CC[C@@H](CO)CC4)c(-c4ccc(CO)cn4)cn3)n2)cn1 [Example 22]" class_name="yes (1)"
molecule="CC(C)(O)[C@H]1CC[C@@H](Nc2cc(Nc3ccnc(-c4cnn(S(=O)(=O)C5CC5)c4)n3)ncc2-c2ccc(N3CCCC3)cn2)CC1 [Example 82]" class_name="no (0)"
molecule="C[C@]1(O)CC[C@@H](Nc2cc(Nc3ccnc(-c4cnn(S(=O)(=O)C5CC5)c4)n3)ncc2-c2ccc(N3CCCC3)cn2)CC1 [Example 80]" class_name="no (0)"

Task: State whether 0.6 nM exceeds IC50 recorded for CN1CCN(c2ccc(-c3cnc(Nc4ccnc(-c5cnn(S(=O)(=O)C6CC6)c5)n4)cc3N[C@H]3CC[C@@H](C(C)(C)O)CC3)nc2)CC1 [Example 84] .
Output: no (0)

Task: Quick one: O=S(=O)(C1CC1)n1cc(-c2nccc(Nc3cc(N[C@H]4CC[C@@H](CO)CC4)c(-c4ccc(N5CCCC5)cn4)cn3)n2)cn1 [Example 81]
Output: no (0)

Task: Quick one: CN1CCC(Oc2ccc(-c3cnc(Nc4ccnc(-c5cnn(S(=O)(=O)C6CC6)c5)n4)cc3N[C@H]3CC[C@@H](F)CC3)nc2)CC1 [Example 132]
Output: yes (1)

Task: Quick one: CC(C)Nc1cc(Nc2ccnc(-c3cnn(S(=O)(=O)C4CC4)c3)n2)ncc1-c1cnc(C(C)(C)O)cn1 [Example 121]
Output: yes (1)

====

measured-target: EGFR L858R/T790M/C797S (Homo sapiens, UniProt P00533, C797S/L858R/T790M)
Sequence (P00533 25-1210 T790M/C797S/L858R): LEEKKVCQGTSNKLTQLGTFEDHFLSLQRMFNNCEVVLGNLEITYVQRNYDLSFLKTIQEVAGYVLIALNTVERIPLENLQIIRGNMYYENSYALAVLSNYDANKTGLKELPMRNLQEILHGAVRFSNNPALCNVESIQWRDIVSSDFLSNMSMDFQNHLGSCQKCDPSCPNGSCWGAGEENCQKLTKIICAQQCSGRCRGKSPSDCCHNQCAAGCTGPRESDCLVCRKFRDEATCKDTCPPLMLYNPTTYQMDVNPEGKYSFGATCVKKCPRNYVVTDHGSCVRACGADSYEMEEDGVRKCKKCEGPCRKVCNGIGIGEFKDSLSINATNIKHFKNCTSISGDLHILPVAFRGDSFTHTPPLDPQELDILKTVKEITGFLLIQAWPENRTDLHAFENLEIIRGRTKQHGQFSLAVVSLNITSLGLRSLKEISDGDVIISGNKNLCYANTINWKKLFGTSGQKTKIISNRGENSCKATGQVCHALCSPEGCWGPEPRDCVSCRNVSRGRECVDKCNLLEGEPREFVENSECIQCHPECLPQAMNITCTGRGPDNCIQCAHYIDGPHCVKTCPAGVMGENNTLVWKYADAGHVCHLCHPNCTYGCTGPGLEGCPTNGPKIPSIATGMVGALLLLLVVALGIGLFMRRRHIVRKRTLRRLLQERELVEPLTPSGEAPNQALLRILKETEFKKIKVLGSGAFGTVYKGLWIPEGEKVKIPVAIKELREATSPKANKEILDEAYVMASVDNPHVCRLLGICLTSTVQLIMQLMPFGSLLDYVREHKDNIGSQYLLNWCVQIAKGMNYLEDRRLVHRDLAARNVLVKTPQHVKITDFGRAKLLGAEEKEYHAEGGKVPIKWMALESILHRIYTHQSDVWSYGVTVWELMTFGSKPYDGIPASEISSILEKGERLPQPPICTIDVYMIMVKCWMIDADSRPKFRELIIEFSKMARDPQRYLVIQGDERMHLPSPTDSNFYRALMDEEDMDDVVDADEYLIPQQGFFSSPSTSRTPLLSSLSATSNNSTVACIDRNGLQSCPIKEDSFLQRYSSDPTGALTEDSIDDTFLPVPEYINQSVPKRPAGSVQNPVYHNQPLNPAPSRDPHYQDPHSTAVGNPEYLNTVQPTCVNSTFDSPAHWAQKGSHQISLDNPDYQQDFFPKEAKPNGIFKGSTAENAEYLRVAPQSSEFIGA
protocol-text: Biochemical EGFR kinase assay (Lance Ultra TR-FRET), triple mutant L858R/T790M/C797S
study-conditions: ATP at Km; read-out: IC50 L858R/T790M/C797S, Km ATP
measured-endpoint: log10 IC50 (log10 of the value in nM)
All values: log10 IC50 [nM].

molecule="CC1(O)CCC(Nc2cc(Nc3ccnc(-c4cnn(S(=O)(=O)C5CC5)c4)n3)ncc2-c2cc(CN3CC(O)C3)ccn2)CC1 (stereo not drawn) [Example 288]" value_measured=-1.00

Task: Missing value: log10 IC50, EGFR L858R/T790M/C797S (Homo sapiens, UniProt P00533, C797S/L858R/T790M), entry C[C@]1(O)CC[C@@H](Nc2cc(Nc3ccnc(-c4cnn(S(=O)(=O)C5CC5)c4)n3)ncc2-c2cc(OCCN3CCOCC3)ccn2)CC1 [Example 211] . Fill in?
Output: -1.00

Task: Quick one: C[C@]1(O)CC[C@@H](Nc2cc(Nc3ccnc(-c4cnn(S(=O)(=O)C5CC5)c4)n3)ncc2-c2cccc(F)n2)CC1 [Example 271]
Output: -0.70

Task: Quick one: C[C@]1(O)CC[C@@H](Nc2cc(Nc3ccnc(-c4cnn(S(=O)(=O)C5CC5)c4)n3)ncc2-c2ccc(CC(F)(F)F)cn2)CC1 [Example 218]
Output: -0.15

Task: Quick one: CC(F)(F)c1ccc(-c2cnc(Nc3ccnc(-c4cnn(S(=O)(=O)C5CC5)c4)n3)cc2N[C@H]2CC[C@@](C)(O)CC2)nc1 [Example 292]
Output: -0.22

Task: Quick one: CN(C)CCOc1ccnc(-c2cnc(Nc3ccnc(-c4cnn(S(=O)(=O)C5CC5)c4)n3)cc2N[C@H]2CC[C@@](C)(O)CC2)c1 [Example 287]
Output: -1.00

Task: Quick one: CN(C)C[C@H]1CC[C@@H](Nc2cc(Nc3ccnc(-c4cnn(S(=O)(=O)C5CC5)c4)n3)ncc2-c2cc(NC3CC(F)(F)C3)ccn2)CC1 [Example 216]
Output: -0.10

Task: Quick one: Cc1ccc(-c2cnc(Nc3ccnc(-c4cnn(S(=O)(=O)C5CC5)c4)n3)cc2N[C@H]2CC[C@@H](C(C)(C)O)CC2)nc1F [Example 180]
Output: 0.40

Task: Quick one: CC(C)(O)[C@H]1CC[C@@H](Nc2cc(Nc3ccnc(-c4cnn(S(=O)(=O)C5CC5)c4)n3)ncc2-c2ccc(N3CC(F)(F)C3)cn2)CC1 [Example 225]
Output: 0.40

Task: Quick one: CN1CCC(F)(COc2cnc(-c3cnc(Nc4ccnc(-c5cnn(S(=O)(=O)C6CC6)c5)n4)cc3N[C@H]3CC[C@@](C)(O)CC3)cn2)CC1 [Example 154]
Output: -1.00

Task: Quick one: C[C@]1(O)CC[C@@H](Nc2nccc(-c3cnc(Nc4ccnc(-c5cnn(S(=O)(=O)C6CC6)c5)n4)cc3N[C@H]3CC[C@@](C)(O)CC3)n2)CC1 [Example 191]
Output: -0.52

Task: Quick one: CN1CCC(Oc2ccc(-c3cnc(Nc4ccnc(-c5cnn(S(=O)(=O)C6CC6)c5)n4)cc3NC3CCN(CC(F)F)CC3)nc2)CC1 [Example 258]
Output: -1.00

These entries and their values trace back to patent US12258328B2.
